# Test target: T1, human leukocyte elastase (hLE) (human), P08246
# T1 chain: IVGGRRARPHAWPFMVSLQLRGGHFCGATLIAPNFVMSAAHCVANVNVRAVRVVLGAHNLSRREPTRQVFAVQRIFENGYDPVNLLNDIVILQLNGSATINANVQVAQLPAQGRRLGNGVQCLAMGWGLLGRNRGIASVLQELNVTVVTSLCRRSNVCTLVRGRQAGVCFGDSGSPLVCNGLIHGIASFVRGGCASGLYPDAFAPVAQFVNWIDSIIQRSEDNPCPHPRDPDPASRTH
# Condition context: modification not given
Parameter: Ki (µM)
Give just the number in µM; leave the unit off.

What does the record list as Ki for TFSYGIDKSWFILIE [peptide 24] ?
10
